# Test system: KM12 colon
# assay_summary: NCI tumour cell line growth inhibition, 48 h
Provide the recorded TGI for the entries that follow.
Only the number, expressed in µM, is required.

query: Quote TGI reported for COc1cccc(C2SC(C)C(=O)N2CCc2cccs2)c1 (centres undefined) please.
result: 8.99

query: Quote TGI reported for Cc1c(O)c(OC2OC(CO)C(O)C(O)C2O)cc2c1C=C[C@@H]1[C@@]2(C)C(=O)C[C@]2(C)[C@@H]([C@@](C)(O)C(=O)CCC(C)(C)O)[C@H](O)C[C@@]12C (some centres undefined) please.
result: 66.6

query: Quote TGI reported for `O=C(CNc1ccc2c(=S)c3ccccc3[nH]c2c1)Nc1ccccc1-c1ccccc1NC(=O)CNc1ccc2c(=S)c3ccccc3[nH]c2c1` please.
result: 42.7

query: Quote TGI reported for C=C1C(OC/C=C/COC2O[C@@H]3O[C@@]4(C)CC[C@H]5[C@H](C)CC[C@@H](C2=C)[C@@]35OO4)O[C@@H]2O[C@@]3(C)CC[C@H]4[C@H](C)CC[C@@H]1[C@@]24OO3 (some centres undefined) please.
result: 0.778
